- System Under Test: T1, rhIL-17A (human, UniProt Q16552 24-155)
- T1 construct: Homodimer; expressed from adenoviral vectors in HEK 293 cells; also called recombinant human IL-17A; adenovirus-derived rhIL-17A
- T1 sequence: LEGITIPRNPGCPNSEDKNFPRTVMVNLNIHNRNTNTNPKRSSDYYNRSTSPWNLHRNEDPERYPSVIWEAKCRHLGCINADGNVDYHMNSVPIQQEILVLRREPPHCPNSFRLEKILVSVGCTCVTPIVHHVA
- Protocol Notes: KinExA, solution equilibrium
Define the label as Condition met when Kd is strictly less than 10 pM and as Condition not met in all remaining cases.

Input line: Quick check: Kd of hu 16C10 Fab (Fab, V domains shown, also called Fab fragment of hu 16C10) VH: QVQLQESGPGLVKPSETLSLTCTVSGFSLPSHSVSWIRQPPGKGLEWIGIIWNQGGTDYNSAFKSRVTISVDTSKNQFSLKLSSVTAADTAVYYCARNAYITDYYYENYFMDAWGQGTLVTVSS VL: DIVMTQSPLSLPVTPGEPASISCKSSQSLLFSENQKNYLAWYLQKPGQSPQLLIYWTSTRQSGVPDRFSGSGSGTDFTLKISRVEAEDVGVYYCQQSYYTPYTFGQGTKVEIKR under 10 pM?
Output line: Condition not met

Input line: Does hu 16C10 VH N54Q (antibody, human IgG1, V domains shown, Variant of hu 16C10 wt; Human IgG1/kappa; also called hu16C10 (N54Q)) VH: QVQLQESGPGLVKPSETLSLTCTVSGFSLPSHSVSWIRQPPGKGLEWIGIIWNQGGTDYNSAFKSRVTISVDTSKNQFSLKLSSVTAADTAVYYCARNMYITDYYYENYFMDAWGQGTLVTVSS VL: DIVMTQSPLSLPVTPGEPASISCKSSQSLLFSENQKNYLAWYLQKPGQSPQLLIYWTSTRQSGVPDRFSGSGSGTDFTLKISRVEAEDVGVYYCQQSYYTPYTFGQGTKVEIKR have Kd strictly under 10 pM?
Output line: Condition met

Input line: Lab note: Kd threshold 10 pM. Does this binder come in strictly under it? hu 16C10 VH N54A (antibody, human IgG1, V domains shown, Variant of hu 16C10 wt; Human IgG1/kappa; also called hu16C10 (N54A)) VH: QVQLQESGPGLVKPSETLSLTCTVSGFSLPSHSVSWIRQPPGKGLEWIGIIWNAGGTDYNSAFKSRVTISVDTSKNQFSLKLSSVTAADTAVYYCARNMYITDYYYENYFMDAWGQGTLVTVSS VL: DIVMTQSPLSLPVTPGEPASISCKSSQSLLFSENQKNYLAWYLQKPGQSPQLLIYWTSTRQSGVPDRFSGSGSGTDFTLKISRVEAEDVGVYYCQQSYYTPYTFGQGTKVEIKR
Output line: Condition not met
